- assay.system: ErbB2 (Homo sapiens, UniProt P04626)
- Sequence (P04626 23-1255): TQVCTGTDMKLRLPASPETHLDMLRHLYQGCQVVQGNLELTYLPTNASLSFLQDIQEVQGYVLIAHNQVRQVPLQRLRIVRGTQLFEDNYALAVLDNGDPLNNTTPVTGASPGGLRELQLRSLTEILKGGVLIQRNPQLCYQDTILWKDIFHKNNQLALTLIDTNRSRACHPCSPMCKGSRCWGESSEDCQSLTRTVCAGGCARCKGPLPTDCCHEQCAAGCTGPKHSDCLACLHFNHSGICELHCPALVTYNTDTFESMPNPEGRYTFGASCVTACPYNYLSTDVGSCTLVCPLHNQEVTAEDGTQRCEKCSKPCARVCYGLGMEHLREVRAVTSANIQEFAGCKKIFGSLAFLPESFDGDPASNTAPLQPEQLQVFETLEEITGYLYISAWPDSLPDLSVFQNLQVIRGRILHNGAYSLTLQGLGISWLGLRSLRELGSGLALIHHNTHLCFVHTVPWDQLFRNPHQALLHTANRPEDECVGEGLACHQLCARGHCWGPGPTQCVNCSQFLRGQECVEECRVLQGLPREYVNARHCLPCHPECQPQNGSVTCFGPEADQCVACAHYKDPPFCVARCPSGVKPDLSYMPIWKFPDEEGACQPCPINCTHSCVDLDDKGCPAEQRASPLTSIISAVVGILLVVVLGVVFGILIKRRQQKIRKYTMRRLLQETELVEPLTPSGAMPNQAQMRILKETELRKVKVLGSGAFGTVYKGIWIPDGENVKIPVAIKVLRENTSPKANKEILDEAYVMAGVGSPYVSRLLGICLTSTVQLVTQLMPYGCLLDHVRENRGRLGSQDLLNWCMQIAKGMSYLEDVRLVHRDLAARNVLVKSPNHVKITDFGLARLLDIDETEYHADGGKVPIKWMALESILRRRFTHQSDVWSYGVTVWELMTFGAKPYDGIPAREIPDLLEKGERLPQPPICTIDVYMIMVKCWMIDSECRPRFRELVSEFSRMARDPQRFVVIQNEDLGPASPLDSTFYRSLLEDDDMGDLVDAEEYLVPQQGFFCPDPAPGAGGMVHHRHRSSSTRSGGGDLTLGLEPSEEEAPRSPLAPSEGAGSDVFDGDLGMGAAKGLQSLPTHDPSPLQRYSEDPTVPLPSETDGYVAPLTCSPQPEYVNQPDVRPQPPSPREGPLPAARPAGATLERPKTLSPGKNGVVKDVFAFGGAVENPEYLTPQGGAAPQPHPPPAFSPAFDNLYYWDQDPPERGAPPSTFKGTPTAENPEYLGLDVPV
- test: Z'-LYTE biochemical assay, ErbB2 kinase inhibition
- experimental.conditions: @ 1 μM
readout.label: inhibition at 1 µM (%)

* CN(C)C/C=C/C(=O)Nc1cccc(Nc2cc(Nc3ccc(F)c(Cl)c3)ncn2)c1 | 91
* C=CS(=O)(=O)Nc1cccc(Nc2cc(Nc3ccc(F)c(Cl)c3)ncn2)c1 | 89
* C=CC(=O)Nc1cccc(Nc2cc(Nc3cccc(C)c3)ncn2)c1 | 86
* C=CC(=O)Nc1cccc(Nc2cc(Nc3cccc(Br)c3)ncn2)c1 | 76
* C=CC(=O)Nc1cccc(Nc2cc(Nc3ccc(OCc4cccc(F)c4)c(Cl)c3)ncn2)c1 | 84
* Cc1cccc(Nc2cc(Nc3cccc(NC(=O)/C=C/CN(C)C)c3)ncn2)c1 | 89

###

- assay.system: ErbB1 (Homo sapiens, UniProt P00533)
- Sequence (P00533 25-1210): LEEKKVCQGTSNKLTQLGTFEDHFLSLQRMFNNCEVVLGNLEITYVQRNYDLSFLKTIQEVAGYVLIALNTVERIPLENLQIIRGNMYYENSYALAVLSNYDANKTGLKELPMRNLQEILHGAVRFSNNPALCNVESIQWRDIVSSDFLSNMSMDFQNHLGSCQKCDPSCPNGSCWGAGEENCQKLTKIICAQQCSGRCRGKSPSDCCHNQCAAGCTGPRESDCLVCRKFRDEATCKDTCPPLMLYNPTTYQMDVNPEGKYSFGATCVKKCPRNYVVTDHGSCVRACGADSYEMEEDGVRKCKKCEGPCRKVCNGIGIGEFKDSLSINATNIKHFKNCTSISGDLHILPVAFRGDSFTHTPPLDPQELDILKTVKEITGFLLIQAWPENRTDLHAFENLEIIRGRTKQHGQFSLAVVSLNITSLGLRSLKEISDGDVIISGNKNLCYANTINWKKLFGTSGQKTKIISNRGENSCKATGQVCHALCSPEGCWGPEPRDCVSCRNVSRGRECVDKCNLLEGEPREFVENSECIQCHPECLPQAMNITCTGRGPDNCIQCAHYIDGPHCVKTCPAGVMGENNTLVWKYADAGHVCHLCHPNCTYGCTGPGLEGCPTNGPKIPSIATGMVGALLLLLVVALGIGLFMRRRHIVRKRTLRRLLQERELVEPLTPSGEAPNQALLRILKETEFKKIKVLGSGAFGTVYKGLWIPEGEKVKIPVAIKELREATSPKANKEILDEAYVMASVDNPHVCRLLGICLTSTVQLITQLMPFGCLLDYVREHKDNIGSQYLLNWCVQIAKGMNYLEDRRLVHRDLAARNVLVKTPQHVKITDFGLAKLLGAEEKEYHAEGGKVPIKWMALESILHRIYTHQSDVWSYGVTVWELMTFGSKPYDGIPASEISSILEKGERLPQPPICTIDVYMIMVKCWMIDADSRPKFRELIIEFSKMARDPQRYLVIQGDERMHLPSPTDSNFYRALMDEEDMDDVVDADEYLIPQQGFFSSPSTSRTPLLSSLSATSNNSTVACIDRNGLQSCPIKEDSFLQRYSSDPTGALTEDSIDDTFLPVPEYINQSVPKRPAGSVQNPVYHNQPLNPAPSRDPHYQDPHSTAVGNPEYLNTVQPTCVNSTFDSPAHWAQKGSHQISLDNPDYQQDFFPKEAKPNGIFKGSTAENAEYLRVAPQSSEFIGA
- test: Z'-LYTE biochemical assay, ErbB1 kinase inhibition
- experimental.conditions: @ 10 nM
readout.label: inhibition at 0.01 µM (%)

Known results for molecules:
• C=CS(=O)(=O)Nc1cccc(Nc2cc(Nc3ccc(OCc4cccc(F)c4)c(Cl)c3)ncn2)c1 [I-7] = 53
• C=CS(=O)(=O)Nc1cccc(Nc2cc(Nc3ccc(F)c(Cl)c3)ncn2)c1 [I-3] = 56
• C=CC(=O)Nc1cccc(Nc2cc(Nc3cccc(Br)c3)ncn2)c1 [I-1] = 99

[1] C=CC(=O)Nc1cccc(Nc2cc(Nc3ccc(F)c(Cl)c3)ncn2)c1 [I-2]
[2] C=CC(=O)Nc1cccc(Nc2cc(Nc3ccc(OCc4cccc(F)c4)c(Cl)c3)ncn2)c1 [I-6]
Pick one: 1 or 2 . Which one has the lower reported inhibition at 0.01 µM? # answer = label of selected item
2
(2: 49%, 1: 75%)

###

- assay.system: ITK (Homo sapiens, UniProt Q08881)
- Sequence (Q08881 whole entry): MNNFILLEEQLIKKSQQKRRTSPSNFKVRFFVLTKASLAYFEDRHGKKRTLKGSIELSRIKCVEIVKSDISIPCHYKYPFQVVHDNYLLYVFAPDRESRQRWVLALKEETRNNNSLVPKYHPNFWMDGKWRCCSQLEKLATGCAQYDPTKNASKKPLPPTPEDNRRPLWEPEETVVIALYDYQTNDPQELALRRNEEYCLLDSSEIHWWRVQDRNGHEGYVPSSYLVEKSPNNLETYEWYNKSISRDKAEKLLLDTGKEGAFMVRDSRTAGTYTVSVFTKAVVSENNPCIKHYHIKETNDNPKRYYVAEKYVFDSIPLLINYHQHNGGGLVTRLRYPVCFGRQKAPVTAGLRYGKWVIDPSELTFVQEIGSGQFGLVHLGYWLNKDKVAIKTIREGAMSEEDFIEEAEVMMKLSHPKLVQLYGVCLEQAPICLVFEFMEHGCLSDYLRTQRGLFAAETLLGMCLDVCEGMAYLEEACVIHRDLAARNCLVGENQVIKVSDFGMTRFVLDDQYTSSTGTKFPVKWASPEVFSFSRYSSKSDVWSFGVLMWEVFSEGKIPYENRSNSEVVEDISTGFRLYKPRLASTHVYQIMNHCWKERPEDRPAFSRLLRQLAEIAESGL
- test: Omnia assay for potency against ITK
- Assay type: biochemical
- experimental.conditions: read-out: ITK inhibition
pIC50: −log10 of the molar value.
The compounds listed here are annotated with their pIC50.

- C=CC(=O)Nc1cccc(Nc2cc(Oc3cccc(OC)c3)ncn2)n1: 6.00 to 7.00
- C=CC(=O)Nc1cccc(Nc2cc(N(C)c3ccccc3)ncn2)c1: 5.00 to 6.00
- CC#CC(=O)c1cccc(Nc2cc(Nc3ccc(Oc4ccccc4)cc3)ncn2)c1: 7.00 to 8.00
- C=CC(=O)Nc1cccc(Nc2cc(Nc3ccc(Oc4ccccc4)cc3)ncn2)c1: 5.00 to 6.00
- C=CC(=O)N(C)c1cccc(Nc2cc(Nc3ccc(Oc4ccccc4)cc3)ncn2)n1: 7.00 to 8.00
- C=CS(=O)(=O)Nc1cccc(Nc2cc(Oc3cccc(C(F)(F)F)c3)ncn2)c1: ≤ 5.00

Bench note: what pIC50 did C=CC(=O)Nc1cc(Nc2cc(Oc3ccc(Oc4ccccc4)cc3)ncn2)cc(C(=O)N2CCOCC2)c1 show?
≤ 5.00

###

- assay.system: EGFR (WT) (Homo sapiens, UniProt P00533)
- Sequence (P00533 25-1210): as the sequence (P00533 25-1210) above
pIC50: −log10 of the molar value.
We begin with a simple list: items and their reported pIC50.

• C=CC(=O)Nc1cc(Nc2cc(Oc3cccc(Cl)c3)ncn2)ccc1N1CCOCC1 [I-105] = ≥ 8.00
• O=C(CCl)Nc1cccc(Nc2cc(Nc3ccc(F)c(Cl)c3)ncn2)c1 [I-49] = ≥ 8.00
• CN(C)C/C=C/C(=O)N(C)c1cccc(Nc2cc(Nc3ccc(F)c(Cl)c3)ncn2)c1 [I-48] = 6.00 to 7.00

Param readout = pIC50; param system = EGFR (WT) (Homo sapiens, UniProt P00533); param query = C=CS(=O)(=O)Nc1cccc(Nc2cc(Nc3ccc(F)c(Cl)c3)ncn2)c1 [I-3] ; response: value
≥ 8.00

Form entry - test system: EGFR (WT) (Homo sapiens, UniProt P00533); read-out: pIC50; compound: O=C(Nc1cccc(Nc2cc(Nc3ccc(F)c(Cl)c3)ncn2)c1)C1(C(F)(F)F)CC1 [I-51]
≥ 8.00

Give pIC50 (EGFR (WT) (Homo sapiens, UniProt P00533)) of the following compound: C=CC(=O)Nc1cccc(Nc2cc(Nc3ccc(Oc4ccccc4)cc3)ncn2)n1 [I-63]
≥ 8.00

Missing value: pIC50, EGFR (WT) (Homo sapiens, UniProt P00533), entry C=CC(=O)N1CCCC(Nc2cc(Nc3ccc(F)c(Cl)c3)ncn2)C1 (stereo not drawn) [I-71] . Fill in?
≥ 8.00

Form field: pIC50 recorded for CN(C)C/C=C/C(=O)Nc1cccc(Nc2cc(Oc3ccc(Oc4ccccc4)cc3)ncn2)n1 [I-82] with EGFR (WT) (Homo sapiens, UniProt P00533) (enter value)
≥ 8.00

Provide value of pIC50 for this record tested with EGFR (WT) (Homo sapiens, UniProt P00533): C=CC(=O)Nc1cccc(Nc2cc(Nc3ccc(Oc4ccccc4)cc3)ncn2)c1 [I-13]
≥ 8.00

Return pIC50 measured with EGFR (WT) (Homo sapiens, UniProt P00533) given this compound: C=CC(=O)Nc1cc(Nc2cc(Oc3ccc(Oc4ccccc4)cc3)ncn2)ccc1N1CCOCC1 [I-101]
≥ 8.00

Give the reported pIC50 for C=CC(=O)Nc1cccc(Nc2cc(Nc3ccc(Br)cc3F)ncn2)c1 [I-55] (system: EGFR (WT) (Homo sapiens, UniProt P00533)).
≥ 8.00

// map O=C(CCl)Nc1cccc(Nc2cc(Oc3ccc(NC(=O)Nc4ccc(Cl)c(C(F)(F)F)c4)cc3)ncn2)c1 [I-69] to recorded pIC50 (system: EGFR (WT) (Homo sapiens, UniProt P00533))
7.00 to 8.00

Return pIC50 measured with EGFR (WT) (Homo sapiens, UniProt P00533) given this compound: C=CC(=O)Nc1cccc(Nc2cc(Sc3ccc(Oc4ccccc4)cc3)ncn2)c1 [I-103]
≥ 8.00

Form field - read-out: pIC50; system: EGFR (WT) (Homo sapiens, UniProt P00533); submitted item: N#CC1(C(=O)Nc2cccc(Nc3cc(Nc4ccc(F)c(Cl)c4)ncn3)c2)CC1 [I-47]
≥ 8.00

Which pIC50 is reported with EGFR (WT) (Homo sapiens, UniProt P00533) for this entry: C=CC(=O)Nc1cccc(Nc2cc(Nc3ccc(OCc4cccc(F)c4)c(Cl)c3)ncn2)c1 [I-6] ?
7.00 to 8.00

Any idea what pIC50 came out for CC#CC(=O)c1cccc(Nc2cc(Nc3ccc(Oc4ccccc4)cc3)ncn2)c1 [I-88] on EGFR (WT) (Homo sapiens, UniProt P00533)?
≥ 8.00

Requested read-out pIC50, target or system EGFR (WT) (Homo sapiens, UniProt P00533), entry C=CC(=O)Nc1cccc(Nc2cc(Nc3ccccc3)ncn2)c1 [I-67]
≥ 8.00

API: value(readout= pIC50, system= EGFR (WT) (Homo sapiens, UniProt P00533), query= COc1ccc(NC(=O)/C=C/CN(C)C)cc1Nc1cc(Nc2ccc(F)c(Cl)c2)ncn1 [I-59] )
≥ 8.00

// lookup pIC50 | system=EGFR (WT) (Homo sapiens, UniProt P00533) | key= C=CC(=O)Nc1cc(Nc2cc(Oc3ccc(Oc4ccccc4)cc3)ncn2)cc(C(=O)N2CCOCC2)c1 [I-100]
≥ 8.00

What measured pIC50 is associated with C#Cc1cccc(Nc2cc(Nc3cccc(Br)c3)ncn2)c1 [I-12] on EGFR (WT) (Homo sapiens, UniProt P00533)?
7.00 to 8.00

Any idea what pIC50 came out for C=CC(=O)Nc1cccc(Nc2cc(Nc3ccc(F)c(Cl)c3)ncn2)c1 [I-2] on EGFR (WT) (Homo sapiens, UniProt P00533)?
≥ 8.00

Query for EGFR (WT) (Homo sapiens, UniProt P00533): what pIC50 does the record show for C#Cc1cccc(Nc2cc(Nc3cccc(C#C)c3)ncn2)c1 [I-11] ?
7.00 to 8.00

Fill in the recorded pIC50 for this compound, with EGFR (WT) (Homo sapiens, UniProt P00533) as test system: C=CS(=O)(=O)Nc1cccc(Nc2cc(Nc3cccc(C)c3)ncn2)c1 [I-5]
≥ 8.00

###

- assay.system: ErbB2 (Homo sapiens)
- test: Z'-LYTE biochemical assay, ErbB2 kinase inhibition
- experimental.conditions: @ 1 μM
readout.label: inhibition at 1 µM (%)

- C=CS(=O)(=O)Nc1cccc(Nc2cc(Nc3cccc(C)c3)ncn2)c1: 86
- C=CC(=O)Nc1cccc(Nc2cc(Nc3ccc(F)c(Cl)c3)ncn2)c1: 96
- CN(C)C/C=C/C(=O)Nc1cccc(Nc2cc(Nc3ccc(OCc4ccccn4)c(Cl)c3)ncn2)c1: 98
- C=CC(=O)Nc1cccc(Nc2cc(Nc3ccc(Oc4ccccc4)cc3)ncn2)c1: 98
- C=CS(=O)(=O)Nc1cccc(Nc2cc(Nc3ccc(OCc4cccc(F)c4)c(Cl)c3)ncn2)c1: 89

###

Quick record: IC50, BTK (Homo sapiens).

• C=CC(=O)Nc1cccc(Nc2cc(Nc3ccc(Br)cc3F)ncn2)c1 [I-55] = 10 to 100 nM

Reported IC50 for C=C(C#N)C(O)c1cccc(Nc2cc(Nc3ccc(Oc4ccccc4)cc3)ncn2)c1 (stereo not drawn) [I-84] : what is it?
1000 to 10000 nM

Which measured IC50 value corresponds to C=CC(=O)Nc1cccc(Nc2cc(Oc3cccc(C(F)(F)F)c3)ncn2)c1 [I-9] ?
100 to 1000 nM

Which value of IC50 has been reported for C=CC(=O)Nc1cc(Nc2cc(Oc3ccc(Oc4ccccc4)cc3)ncn2)ccc1N1CCOCC1 [I-101] in the records?
≤ 10 nM

Reported IC50 for C=CC(=O)Nc1cccc(Nc2cc(N3CCc4ccccc43)ncn2)c1 [I-14] : what is it?
100 to 1000 nM

Please report the recorded IC50 for C=CC(=O)Nc1cccc(Nc2cc(Nc3ccc(OCc4cccc(F)c4)c(Cl)c3)ncn2)c1 [I-6] .
100 to 1000 nM

Endpoint output: IC50 of C=CC(=O)N1CC(C)(C)Oc2ccc(Nc3cc(Oc4cccc(Cl)c4)ncn3)cc21 [I-104] . Value?
≤ 10 nM

// IC50 lookup, key: Cc1ccc(NC(=O)/C=C/CN(C)C)cc1Nc1cc(Nc2ccc(F)c(Cl)c2)ncn1 [I-54]
100 to 1000 nM

# query: IC50 of entry C=CC(=O)Nc1cccc(Nc2cc(N(C)c3ccccc3)ncn2)c1 [I-15]
10 to 100 nM

Query: IC50; subject: C#Cc1cccc(Nc2cc(Nc3cccc(Br)c3)ncn2)c1 [I-12]
≥ 10000 nM

Bench note: what IC50 did CN(C)C/C=C/C(=O)Nc1cccc(Nc2cc(Nc3ccc(OCc4ccccn4)c(Cl)c3)ncn2)c1 [I-19] show?
10 to 100 nM

Quick check: IC50 of CN(C)C/C=C/C(=O)Nc1cccc(Nc2cc(Nc3ccc(F)c(Cl)c3)ncn2)c1 [I-18] ?
10 to 100 nM

If you can, please state the reported IC50 value of CC=CC(=O)c1cccc(Nc2cc(Nc3ccc(Oc4ccccc4)cc3)ncn2)c1 (mixture of isomers) [I-89] .
≤ 10 nM

Which IC50 is reported for this compound? CC(C)=CC(=O)c1cccc(Nc2cc(Nc3ccc(Oc4ccccc4)cc3)ncn2)c1 [I-87]
≥ 10000 nM

Any idea what IC50 was measured for C=CC(=O)Nc1cccc(Nc2cc(Nc3ccccc3)ncn2)n1 [I-94] ?
≤ 10 nM

Source listed as patent US9296704B2.
